Test system: Mycobacterium tuberculosis
testName: Antibacterial activity against wild type Mycobacterium tuberculosis H37Rv-LP DREAM8 strain expressing codon-optimized DsRed assessed growth inhibition incubated for 5 days by fluorescence spectrophotometric assay
Assay type: functional
appliedConditions: H37Rv-LP DREAM8, 120 h, time 5 day
reportedProperty: IC90

Recorded result, COc1ccc(-c2cc(C(F)(F)F)c3c(N)c(C(=O)NC4CC4)sc3n2)cc1 , IC90: > 100 µM

Recorded result, Nc1c(C(=O)N2CCOCC2)sc2ncccc12 , IC90: > 100 µM

Recorded result, COc1ccc(-c2cc(C(F)(F)F)c3c(N)c(C(=O)N4CC5(CCOC5)C4)sc3n2)cc1 , IC90: > 50 µM

Recorded result, Nc1c(C(=O)Nc2cccnc2)sc2nc(-c3ccccc3)cc(C(F)(F)F)c12 , IC90: > 100 µM

Recorded result, COc1ccc(-c2cc(C(F)(F)F)c3c(N)c(C(=O)Nc4cccc(C)c4OC)sc3n2)cc1 , IC90: > 100 µM

Recorded result, COc1ccc(-c2cc(C(F)(F)F)c3c(N)c(C(=O)NCC45CC6CC(CC(C6)C4)C5)sc3n2)cc1 , IC90: 1.4 µM

Recorded result, Nc1c(C(=O)NCc2ccccc2)sc2nc(-c3ccccc3)ccc12 , IC90: > 100 µM

Recorded result, COc1ccc(-c2cc(C(F)(F)F)c3c(N)c(C(=O)NCc4cccc(C)c4C)sc3n2)cc1 , IC90: 1.3 µM

Recorded result, Nc1c(C(=O)Nc2ccccc2C(F)(F)F)sc2nc(-c3ccccc3)cc(C(F)(F)F)c12 , IC90: > 100 µM

Recorded result, Nc1c(C(=O)NCc2ccc(F)cc2)sc2nc(-c3ccccc3)ccc12 , IC90: > 100 µM
